Kindly state IC50 for each of the entries shown.
target: rat brain cortical membranes ([35S]-TBPS binding, GABA receptor complex); experiment: Steroid inhibition of [35S]-TBPS binding; settings: 3 nM [35S]-TBPS, in the presence of 5 mM GABA

Here are 4 compounds together with their reported answers.
Returns the measured IC50 for the input compound. Input: CCOC[C@@]1(O)CC[C@]2(C)C3=CC[C@]4(C)[C@@H](C(C)=O)CC[C@H]4[C@@H]3CC[C@@H]2C1
100 to 1000 nM

Request: COC[C@@]1(O)CC[C@]2(C)C3=CC[C@]4(C)[C@@H](C(C)=O)CC[C@H]4[C@@H]3CC[C@@H]2C1
100 to 1000 nM

Subsequent entry: C[C@@]1(O)CC[C@]2(C)C3=CC[C@]4(C)[C@@H](C(=O)Cn5nccn5)CC[C@H]4[C@@H]3CC[C@H]2C1
100 to 1000 nM

Record: COC[C@@]1(O)CC[C@]2(C)C3=CC[C@]4(C)[C@@H](C(=O)Cn5cc(C#N)cn5)CC[C@H]4[C@@H]3CC[C@@H]2C1
10 to 100 nM

Consider the following items and state reported IC50 for each.
1. CC(=O)[C@H]1CC[C@H]2[C@@H]3CC[C@H]4C[C@](C)(O)CC[C@]4(C)C3=CC[C@]12C
2. Cc1nnn(CC(=O)[C@H]2CC[C@H]3[C@@H]4CC[C@H]5C[C@](C)(O)CC[C@]5(C)C4=CC[C@]23C)n1

1. 100 to 1000 nM
2. 100 to 1000 nM
